molecular target: Tubulin; assay: Inhibition of tubulin polymerization by microplate assay
attribute_measured: IC50 (µM)
Give bare numbers, in µM.

Which measured IC50 value corresponds to `CCCCc1ccc2[nH]c(-c3ccc(OC)cc3)c(/C=N\C)c2c1` ?
1.2

====

tested on: MDA-MB-231; assay: Antiproliferative activity against human MDA-MB-231 cells after 4 days; type: functional, cell-based; conditions: MDA-MB-231, 96 h
attribute_measured: log10 of IC50 (log10 of the value in nM)
Use the decimal logarithm of IC50 (nM).

• CCCCc1ccc2[nH]c(-c3ccc(OC)cc3)c(C=O)c2c1 = 0.83
• CCCCCc1ccc2[nH]c(-c3ccc(OC)cc3)c(C=O)c2c1 = 0.74
• COc1ccc2c(C=O)c(-c3ccc(OC)c(O)c3)[nH]c2c1 = 2.90

Below is a list of compounds. For each, state its recorded log10 of IC50.
1. Cc1ccc(-c2[nH]c3ccc(C)cc3c2C=O)cc1
2. CCCCc1ccc2[nH]c(-c3ccc(OC)cc3)c(/C=N\C)c2c1
3. CCCCc1ccc2[nH]c(-c3ccc(OC)cc3)c(/C=N\O)c2c1

1.68
0.78
1.60
